Biological target: Voltage-gated potassium channel subunit beta-2 (Rattus norvegicus)
Experiment: inhibitors of rat Kvbeta2 reductase activity – biochemical, NADPH fluorescence, primary screen (AID 622);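 note: slope of raw intensity against log time taken from 70 to 1610 s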
Details: recombinant KvBeta, 4-cyanobenzaldehyde reduction, at 10 µM, stronger effect = higher value
MEASURED_ENDPOINT: fluorescence slope
Just the number.

- COMPOUND: "S=c1[nH]nc(Cc2ccccc2)n1-c1ccccc1"
  fluorescence slope: -0.367
- COMPOUND: "COc1nnc(-c2ccc(C)c(S(=O)(=O)NCCO)c2)c2ccccc12"
  fluorescence slope: -0.424
- COMPOUND: "Cn1c(=O)cc(NCCc2ccccc2)[nH]c1=O"
  fluorescence slope: -0.43

// query Requested read-out: fluorescence slope. Entry: O=C(Nc1ccccc1-c1ccccc1)NC1CCN(CC(=O)N2CCOCC2)CC1
// result -0.433

// query Requested read-out: fluorescence slope. Entry: Cc1cc2c(cc1C)-c1nnnn1C(C)(C)C2
// result -0.421

// query Requested read-out: fluorescence slope. Entry: Cc1nn(C)cc1NC(=O)CCSc1nc(-c2ccco2)cc(C(F)(F)F)n1
// result -0.615

// query Requested read-out: fluorescence slope. Entry: Cc1ccc(-c2nnc(N(C)C(=O)c3ccccn3)s2)cn1
// result -0.495

// query Requested read-out: fluorescence slope. Entry: O=c1[nH]c2ccc(Br)cc2c(-c2ccccc2)c1N1CCOCC1
// result -0.396

* * *

Biological target: Voltage-gated potassium channel subunit beta-2 (Rattus norvegicus) (UniProt P62483)
Sequence (P62483 whole entry, looked up): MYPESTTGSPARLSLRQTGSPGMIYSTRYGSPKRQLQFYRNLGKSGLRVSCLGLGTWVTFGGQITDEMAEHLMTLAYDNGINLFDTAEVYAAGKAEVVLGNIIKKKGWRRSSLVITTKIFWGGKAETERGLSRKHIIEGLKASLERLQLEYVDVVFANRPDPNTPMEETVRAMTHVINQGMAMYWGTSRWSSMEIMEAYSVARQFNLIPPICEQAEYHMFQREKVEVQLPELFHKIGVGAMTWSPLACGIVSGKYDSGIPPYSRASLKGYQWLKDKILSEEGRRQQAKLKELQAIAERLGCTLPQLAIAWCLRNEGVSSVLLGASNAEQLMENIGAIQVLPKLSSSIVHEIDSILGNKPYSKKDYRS
Assay: enhancers of rat Kvbeta2 NADPH turnover – biochemical, NADPH fluorescence, primary screen (AID 623);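 note: fluorescence intensity change per second fitted from 20 to 320 s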
Conditions: Recombinant KvBeta, NADPH fluorescence decrease slope, 10 min; at 10 µM; stronger effect = lower value
MEASURED_ENDPOINT: NADPH fluorescence slope
Just the number.

- COMPOUND: "CCn1nc(C(=O)OCC(=O)N2CCc3ccccc32)c2ccccc2c1=O"
  NADPH fluorescence slope: "2.7e-05"
- COMPOUND: "CCN(CC(=O)NC1CCS(=O)(=O)C1)C(=O)C(c1ccccc1)c1ccccc1 (stereo unspecified)"
  NADPH fluorescence slope: "-5e-05"
- COMPOUND: "CCOC(=O)CNC(=O)CSc1ncnc2c1cnn2Cc1ccccc1"
  NADPH fluorescence slope: -0.000157

// query Requested read-out: NADPH fluorescence slope. Entry: Cc1nc2c(-c3ccccc3)c(C)nn2c(C)c1CCC(=O)NCc1ccco1
// result 1.5e-05

// query Requested read-out: NADPH fluorescence slope. Entry: O=C(COc1ccccc1)N1CCN(c2ncnc3c2cnn3-c2ccccc2)CC1
// result -4e-05

// query Requested read-out: NADPH fluorescence slope. Entry: c1cn2cc(CSC3CCCCC3)nc2s1
// result -4.6e-05

// query Requested read-out: NADPH fluorescence slope. Entry: COc1cccc(NC(=O)c2nc3nc(C)cc(C(F)F)n3n2)c1
// result -5.2e-05

// query Requested read-out: NADPH fluorescence slope. Entry: Cc1cccc(OCCCc2c(C)n[nH]c2C)c1
// result 6.9e-05

// query Requested read-out: NADPH fluorescence slope. Entry: Cc1nnc(SCC(=O)N2CCC(C(=O)Nc3nccs3)CC2)n1Cc1ccccc1
// result -4.4e-05

// query Requested read-out: NADPH fluorescence slope. Entry: COC(=O)c1cc2oc(C)cc2n1CC(=O)Nc1ccc(C)c(C)c1
// result -1.2e-05

// query Requested read-out: NADPH fluorescence slope. Entry: COCCCN(C)C1CCN(C(=O)Nc2ccc(F)cc2)CC1
// result -1.9e-06

Data origin: PubChem BioAssay
